Data provenance: patent US11117887B2

Answer each item with its documented melting point.

Exam item: Give me measured melting point, please, for this compound: Cc1nc(-c2c[nH]c3c(F)cc(F)cc23)nc(N[C@H]2CCC[C@@H](Nc3cncc(Cl)n3)C2)c1F
Marked response: 201.8 °C

Exam item: Give me measured melting point, please, for this compound: Fc1cc(F)c2[nH]cc(-c3ncc(F)c(N[C@H]4CCC[C@@H](Nc5ccncn5)C4)n3)c2c1
Marked response: 166.5 °C

Exam item: Give me measured melting point, please, for this compound: COc1cnc(Cl)nc1N[C@@H]1CCC[C@H](Nc2nc(-c3c[nH]c4c(F)cc(F)cc34)nc(C)c2F)C1
Marked response: 246.6 °C

Exam item: Give me measured melting point, please, for this compound: Cc1nc(-c2c[nH]c3c(F)cc(F)cc23)nc(N[C@H]2CCC[C@@H](Nc3ncc(C4CC4)c(Cl)n3)C2)c1F
Marked response: 222.7 °C

Exam item: Give me measured melting point, please, for this compound: N#Cc1nccc(N[C@@H]2CCC[C@H](Nc3nc(-c4c[nH]c5c(F)cc(F)cc45)ncc3F)C2)n1
Marked response: 215.6 °C

Exam item: Give me measured melting point, please, for this compound: COc1nccc(N[C@@H]2CCC[C@H](Nc3nc(-c4c[nH]c5c(F)cc(F)cc45)ncc3F)C2)n1
Marked response: 139.6 °C

Exam item: Give me measured melting point, please, for this compound: Fc1cc(F)c2[nH]cc(-c3ncc(F)c(N[C@H]4CCC[C@@H](Nc5ncncc5F)C4)n3)c2c1
Marked response: 215.6 °C

Exam item: Give me measured melting point, please, for this compound: Cc1cnc(Cl)nc1N[C@@H]1CCC[C@H](Nc2nc(-c3c[nH]c4c(F)cc(F)cc34)nc(C)c2F)C1
Marked response: 185.4 °C
